Reference source: patent US12180207B2

molecular target: dephosphorylated FGFR1 (SEQ ID NO: 1, amino acids 458 to 765) (Homo sapiens (Human), UniProt P11362)
Sequence (P11362 458-765): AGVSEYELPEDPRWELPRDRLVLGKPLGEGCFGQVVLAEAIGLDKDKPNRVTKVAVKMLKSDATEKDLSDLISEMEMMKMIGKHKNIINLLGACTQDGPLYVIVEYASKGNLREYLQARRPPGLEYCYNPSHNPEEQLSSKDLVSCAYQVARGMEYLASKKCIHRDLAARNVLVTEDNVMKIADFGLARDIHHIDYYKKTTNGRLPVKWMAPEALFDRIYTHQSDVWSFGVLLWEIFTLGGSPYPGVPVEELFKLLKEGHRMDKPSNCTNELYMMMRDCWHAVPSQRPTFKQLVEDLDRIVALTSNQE
pIC50: −log10 of the molar value.
Lab note: compare pIC50 against 7. Equal or greater, write criterion met. Smaller, write criterion not met.

[[record]]
molecule = "C=CC(=O)N1CC(F)(C(=O)N2CCN(c3cc(C)c(-c4cc(OC)c5c(C#N)cnn5c4)cn3)CC2)C1"
label = "criterion not met"

[[record]]
molecule = "C=CC(=O)N1CC(CN2CCC(n3ncc(-c4cc(OC)c5c(Cl)cnn5c4)c3C)CC2)C1(C)C (centres unmarked)"
label = "criterion not met"

[[record]]
molecule = "COc1cc(-c2nnn(C3CCN(C(=O)C4(F)CN(C(=O)/C=C/CN(C)C)C4)CC3)c2C)cn2ncc(C#N)c12"
label = "criterion not met"

[[record]]
molecule = "COc1cc(-c2c(C)nn(C3CCN(C(=O)C4(F)CN(C(=O)/C=C/CN(C)C)C4)CC3)c2C)cn2ncc(C#N)c12"
label = "criterion not met"

[[record]]
molecule = "COc1cc(-c2cnn(C3CCN(C(=O)C4CN(C(=O)/C=C/CN5CC[C@@H](F)C5)C4)CC3)c2)cn2ncc(C#N)c12"
label = "criterion met"

[[record]]
molecule = "COc1cc(-c2cnn(C3CCN(C(=O)C4(C)CN(C(=O)/C=C/CN(C)C)C4)CC3)c2C)cn2ncc(C#N)c12"
label = "criterion not met"

[[record]]
molecule = "C=CC(=O)N1CCN(c2ccc(-c3cc(OC)c4c(C#N)cnn4c3)cc2)CC1"
label = "criterion met"

[[record]]
molecule = "C=CC(=O)N1CC(C)(CN2CC(n3ncc(-c4cc(OC)c5c(C#N)cnn5c4)c3C)C2)C1"
label = "criterion not met"

[[record]]
molecule = "C=CC(=O)N1CC(C(=O)N2CCC(n3cc(-c4cc(OC)c5c(C#N)cnn5c4)c(CC)n3)CC2)C1"
label = "criterion not met"

[[record]]
molecule = "C=CC(=O)Nc1ccc(CN2CCC(n3cc(-c4cc(OC)c5c(C#N)cnn5c4)cn3)CC2)cc1"
label = "criterion met"

[[record]]
molecule = "COc1cc(-c2cnn(C3CCN(C(=O)C4CN(C(=O)/C=C/CN(C)C)C4)CC3)c2)cn2ncc(Cl)c12"
label = "criterion not met"

[[record]]
molecule = "C=CC(=O)N1CC(C(=O)N2CCC(n3ncc(-c4cc(OC)c5c(C#N)cnn5c4)c3C)CC2)C1"
label = "criterion not met"

[[record]]
molecule = "COc1cc(-c2cnn(C3CCN(C(=O)C4CN(C(=O)/C=C/CN5CC[C@H](F)C5)C4)CC3)c2)cn2ncc(C#N)c12"
label = "criterion met"

[[record]]
molecule = "C=CC(=O)N1CC(CN2CCC(n3ncc(-c4cc(OC)c5c(Cl)cnn5c4)c3C)CC2)(OC)C1"
label = "criterion not met"

[[record]]
molecule = "COc1cc(-c2ccc(N3CCN(C(=O)C4(F)CN(C(=O)/C=C/CN(C)C)C4)CC3)nc2C)cn2ncc(C#N)c12"
label = "criterion not met"

[[record]]
molecule = "C=CC(=O)N[C@H]1C[C@H](C(=O)N2CC[C@H](n3cc(-c4cc(OC)c5c(C#N)cnn5c4)cn3)C2)C1"
label = "criterion met"

[[record]]
molecule = "C=CC(=O)N1CC(C(=O)N2CCC(n3cnc(-c4cc(OC)c5c(C#N)cnn5c4)c3)CC2)C1"
label = "criterion not met"

[[record]]
molecule = "C=CC(=O)N1CCN(C(=O)N2CCC(n3cc(-c4cc(OC)c5c(C#N)cnn5c4)cn3)CC2)CC1"
label = "criterion met"

[[record]]
molecule = "C=CC(=O)N[C@H]1C[C@H](C(=O)N2CC[C@@H](n3cc(-c4cc(OC)c5c(C#N)cnn5c4)cn3)C2)C1"
label = "criterion not met"

[[record]]
molecule = "C=CC(=O)N1C[C@H]2C[C@@H]1CN2C(=O)N1CCC(n2cc(-c3cc(OC)c4c(C#N)cnn4c3)cn2)CC1"
label = "criterion met"

[[record]]
molecule = "C=CC(=O)N1CC[C@@H](C(=O)N2CCC(n3ncc(-c4cc(OC)c5c(C#N)cnn5c4)c3C)CC2)C1"
label = "criterion not met"

[[record]]
molecule = "C=CC(=O)N1CC(CN2CCC(n3ncc(-c4cc(OC)c5c(C#N)cnn5c4)c3C)CC2)C1"
label = "criterion not met"

[[record]]
molecule = "COc1cc(-c2cnn(C3CCN(C(=O)C4CN(C(=O)/C=C/CBr)C4)CC3)c2)cn2ncc(C#N)c12"
label = "criterion met"

